B1: LINE1-full (parent)
chain: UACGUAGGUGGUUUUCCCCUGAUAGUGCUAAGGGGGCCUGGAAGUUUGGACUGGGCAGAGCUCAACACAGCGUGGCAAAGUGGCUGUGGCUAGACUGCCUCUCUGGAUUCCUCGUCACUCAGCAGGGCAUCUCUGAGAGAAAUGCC

variants of: B1; assay: self-cleavage, relative activity (ratio to wild type); higher = more cleavage; in vitro, sequencing; the parent is a self-cleaving ribozyme
measured_attribute: self-cleavage

[[record]]
mutant_id = "U15C A117G"
result_value = 1.83

[[record]]
mutant_id = "G34A C103U"
result_value = 1.7

[[record]]
mutant_id = "A57U U115A"
result_value = 0.09

[[record]]
mutant_id = "C19U"
result_value = 1.21

[[record]]
mutant_id = "G10A G21A"
result_value = 1.14

[[record]]
mutant_id = "A94C U109A"
result_value = 0.05

[[record]]
mutant_id = "G89A A117U"
result_value = 0.04

[[record]]
mutant_id = "A42U A140U"
result_value = 1.05

[[record]]
mutant_id = "G4A U14C"
result_value = 0.59

[[record]]
mutant_id = "A30U U85C"
result_value = 0.1

[[record]]
mutant_id = "U85A U108C"
result_value = 0.12

[[record]]
mutant_id = "A67U G72A"
result_value = 0.13

[[record]]
mutant_id = "C66U U100A"
result_value = 0.02

[[record]]
mutant_id = "A59U A129U"
result_value = 0.51

[[record]]
mutant_id = "U47A A121U"
result_value = 1.04

[[record]]
mutant_id = "U87C A138G"
result_value = 0.28

[[record]]
mutant_id = "A2G U20A"
result_value = 0.37

[[record]]
mutant_id = "A92U U130A"
result_value = 0.67

[[record]]
mutant_id = "A59U C99U"
result_value = 0.46

[[record]]
mutant_id = "U85A A142G"
result_value = 0.08

[[record]]
mutant_id = "U29C G82A"
result_value = 1.44

[[record]]
mutant_id = "A2U A77G"
result_value = 1.77

